Target: biotin-labeled human IL1RAP (human) (UniProt Q9NPH3)
Sequence (Q9NPH3 21-367 limits assumed): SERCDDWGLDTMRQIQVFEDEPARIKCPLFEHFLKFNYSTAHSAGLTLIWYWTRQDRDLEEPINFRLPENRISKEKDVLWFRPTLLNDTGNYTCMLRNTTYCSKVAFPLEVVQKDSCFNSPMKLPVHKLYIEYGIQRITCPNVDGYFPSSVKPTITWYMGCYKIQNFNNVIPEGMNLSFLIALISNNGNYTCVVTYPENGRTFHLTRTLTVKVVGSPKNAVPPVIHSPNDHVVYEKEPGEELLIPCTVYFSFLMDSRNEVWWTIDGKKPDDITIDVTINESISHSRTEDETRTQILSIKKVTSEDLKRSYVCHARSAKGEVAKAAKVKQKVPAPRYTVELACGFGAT
Assay: competition ELISA; competitor: capture mAb016 coated; biotin-hIL1RAP
readout: % inhibition (%)
Report only the number, with the unit % understood.

Field: example entries. Status: answers known.
>>> data_value("murine mAb001 (antibody, V domains shown) VH: QVQLQQPGAELVRPGSSVKLSCKASGYTFTSYWMDWVKQRPGQGLEWIGNIYPSDSKTHYNQKFKDKATLTVDKSSSTAYMQLSSLTSEDSAVYYCARDYYGSIGMDYWGQGTSVTVSS VL: DIQMTQSPSSLSASLGERVSLTCRASQEISGYLSWLQQKPDGTIKRLIYAASTLDSGVPKRFSGSRSGSDYSLTISSLESEDFADYYCLQYASYPWTFGGGTKLEIK")
90
>>> data_value("murine mAb117 (antibody, V domains shown) VH: QAYLQQSGAELVRPGASVKMSCKASGYTFTSYNMHWVKQSPRQGLEWVGVFYLGNGDTSYNEKFKGKATLTVDKSSSTAYMQLSSLTSEDSAVYFCARPGGYANWYFDVWGTGTTVTVSS VL: DIVMTQSQKFMSTSVGDWVSVTCKASQNVGTEVSWYQQKPGQSPNTLIYSASYRHSGVPDRFTGSGSGTEFTLTITNVQSEDLADYFCQQYNSFPLTFGAGTKLDLK")
98

Now for the binder whose % inhibition we want.
(Q) Let me know recorded % inhibition for murine mAb067 (antibody, V domains shown) VH: QVKLHQSGAELAKPGASVKMSCKASGYTFNSYWIHWVKQRPGQGLEWIGYNNPTSGYSEYNQKFTDKATLSADKSSSTAYMQLSSLTSEDSAVYYCVREYGDLFAYWGQGTLVTVSA VL: NIVMTQSPKSMSMSVGERVTLSCKASENVGYSVSWFQQKPDQSPKLLIYGASNRYTGVPDRFTGSGSATDFTLTISTVQAEDLADYHCGQIYIYPYTFGGGTKLEIK , thanks.
(A) 97
